# IC50 values compiled below
target: Bifunctional 3'-5' exonuclease/ATP-dependent helicase WRN [480-1251] (UniProt Q14191); construct: 480-1251; test: Biochemical Activity Assays
Sequence (Q14191 480-1251): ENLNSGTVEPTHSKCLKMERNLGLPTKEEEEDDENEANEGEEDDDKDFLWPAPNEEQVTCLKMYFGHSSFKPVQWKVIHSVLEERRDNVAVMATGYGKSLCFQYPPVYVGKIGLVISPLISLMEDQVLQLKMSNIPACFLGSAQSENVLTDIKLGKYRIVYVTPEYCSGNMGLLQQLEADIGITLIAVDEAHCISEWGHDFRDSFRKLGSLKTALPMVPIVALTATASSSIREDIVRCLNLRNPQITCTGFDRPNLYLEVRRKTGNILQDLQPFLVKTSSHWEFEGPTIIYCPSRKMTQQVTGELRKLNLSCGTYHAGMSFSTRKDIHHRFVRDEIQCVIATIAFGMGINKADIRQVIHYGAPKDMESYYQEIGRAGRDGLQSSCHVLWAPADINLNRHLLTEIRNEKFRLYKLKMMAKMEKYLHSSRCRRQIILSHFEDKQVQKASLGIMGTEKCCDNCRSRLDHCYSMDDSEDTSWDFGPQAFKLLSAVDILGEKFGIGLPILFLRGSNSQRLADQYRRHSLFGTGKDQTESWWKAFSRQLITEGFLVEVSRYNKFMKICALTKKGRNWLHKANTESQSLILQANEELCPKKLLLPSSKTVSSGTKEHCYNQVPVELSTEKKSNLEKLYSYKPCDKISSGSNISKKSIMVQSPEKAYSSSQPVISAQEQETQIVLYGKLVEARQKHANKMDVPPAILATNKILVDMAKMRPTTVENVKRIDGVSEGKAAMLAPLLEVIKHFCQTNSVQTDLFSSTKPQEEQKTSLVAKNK
Reply with just the number (in nM).

CCc1c(N2CCN(C(=O)c3ncnc(C)c3O)CC2)c(=O)n2nc(-c3ccc4c(c3)COC4)nc2n1CC(=O)Nc1c(Cl)cc(C(F)(F)F)c2c1CC2 [WO2025049746, Example 384] | 29
CCc1c(N2CCN(C(C)=O)CC2)c(=O)n2nc(C3=CCOCC3)nc2n1CC(=O)Nc1ccc(C(F)(F)F)cc1Cl [WO2025049746, Example 52] | 28.6
CCc1c(N2CCN(C(=O)c3ncnc(C)c3O)CC2)c(=O)n2nc(-c3cc4c(cc3F)COCC4)nc2n1CC(=O)Nc1ccc(C(F)(F)F)cc1Cl [WO2025049746, Example 260] | 21
CCc1c(N2CCN(C(=O)c3ncnc(C)c3O)CC2)c(=O)n2c(C)c(-c3ccc4c(c3)COC4)nc2n1CC(=O)Nc1ccc(C(F)(F)F)cc1Cl [WO2025049746, Example 451] | 6910

QUERY: Supply reported IC50 belonging to this compound: CCc1c(N2CCC(N(C)C(=O)c3ncnc(C)c3O)C2)c(=O)n2nc(C3=CCOCC3)nc2n1CC(=O)Nc1ccc(C(F)(F)F)cc1Cl (stereo not given) [WO2025049746, Example 339]
RESULT: 2340

---

target: Bifunctional 3'-5' exonuclease/ATP-dependent helicase WRN (Homo sapiens, UniProt Q14191); experiment: ADP-Glo Kinase Assay
Sequence (Q14191 whole entry): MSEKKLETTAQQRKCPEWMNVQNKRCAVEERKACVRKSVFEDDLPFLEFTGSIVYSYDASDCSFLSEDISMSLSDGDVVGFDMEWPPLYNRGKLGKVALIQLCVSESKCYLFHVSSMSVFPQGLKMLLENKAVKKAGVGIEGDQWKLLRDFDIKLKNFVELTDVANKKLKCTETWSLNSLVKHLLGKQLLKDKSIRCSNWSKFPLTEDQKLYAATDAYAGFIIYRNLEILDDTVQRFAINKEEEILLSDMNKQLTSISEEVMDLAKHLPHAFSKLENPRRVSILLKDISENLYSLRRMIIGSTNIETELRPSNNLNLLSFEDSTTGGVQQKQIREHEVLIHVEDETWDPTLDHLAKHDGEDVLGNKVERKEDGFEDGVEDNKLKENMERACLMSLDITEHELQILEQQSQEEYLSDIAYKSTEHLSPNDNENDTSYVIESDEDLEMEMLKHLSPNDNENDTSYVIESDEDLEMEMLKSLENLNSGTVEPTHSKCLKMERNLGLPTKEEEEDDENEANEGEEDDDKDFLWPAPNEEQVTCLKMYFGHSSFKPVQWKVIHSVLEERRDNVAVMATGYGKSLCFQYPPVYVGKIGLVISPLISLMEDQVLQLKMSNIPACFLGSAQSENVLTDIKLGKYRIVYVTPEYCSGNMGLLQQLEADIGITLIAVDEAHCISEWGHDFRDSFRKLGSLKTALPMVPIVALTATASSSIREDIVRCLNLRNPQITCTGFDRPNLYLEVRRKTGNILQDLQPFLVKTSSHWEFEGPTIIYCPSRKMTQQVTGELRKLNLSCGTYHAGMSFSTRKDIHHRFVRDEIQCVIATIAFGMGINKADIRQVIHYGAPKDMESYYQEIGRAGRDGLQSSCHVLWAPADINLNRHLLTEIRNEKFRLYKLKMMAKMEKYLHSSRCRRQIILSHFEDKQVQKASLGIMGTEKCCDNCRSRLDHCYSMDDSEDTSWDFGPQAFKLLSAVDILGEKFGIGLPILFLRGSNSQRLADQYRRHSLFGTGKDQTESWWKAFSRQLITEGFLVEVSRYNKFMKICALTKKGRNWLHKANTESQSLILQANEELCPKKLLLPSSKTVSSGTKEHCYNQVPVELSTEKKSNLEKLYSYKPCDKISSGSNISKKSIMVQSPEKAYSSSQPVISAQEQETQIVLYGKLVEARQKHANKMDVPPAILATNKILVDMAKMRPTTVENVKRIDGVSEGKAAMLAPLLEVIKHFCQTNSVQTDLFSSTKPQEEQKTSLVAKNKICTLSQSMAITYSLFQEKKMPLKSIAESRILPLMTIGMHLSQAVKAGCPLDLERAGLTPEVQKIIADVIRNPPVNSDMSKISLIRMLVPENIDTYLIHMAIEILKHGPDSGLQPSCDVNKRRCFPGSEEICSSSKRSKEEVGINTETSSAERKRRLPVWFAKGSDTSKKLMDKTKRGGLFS
# pIC50 values compiled below
Recall that pIC50 is obtained by taking minus log10 of the concentration measured in molar.

Consider the reported pIC50 for these compounds:
CCc1c(N2CCN(C(=O)c3ncnc(C)c3O)CC2)c(=O)n2nc(-c3ccc4c(c3)CSC4)nc2n1CC(=O)Nc1ccc(C(F)(F)F)cc1Cl | 7.55
CCc1c(N2CCN(C(=O)c3ncnc(C)c3O)CC2)c(=O)n2nc(-c3cccc4c3OCCC4)nc2n1CC(=O)Nc1ccc(C(F)(F)F)cc1Cl | 7.29
CCc1c(N2CCN(C(=O)c3ncnc(C)c3O)CC2)c(=O)n2nc(C3=CCOCC3)nc2n1CC(=O)Nc1ccc(OC(F)F)cc1Cl | 6.79
CCc1c(N2CCN(C(=O)c3ncnc(C)c3O)CC2)c(=O)n2nc(-c3ccc(NC(=O)NC)cc3)nc2n1CC(=O)Nc1ccc(C(F)(F)F)cc1Cl | 7.70
CCc1c(N2CCN(C(=O)c3ncnc(C)c3O)CC2)c(=O)n2nc(-c3ccc4c(c3)CCOC4)nc2n1CC(=O)Nc1ccc(Cl)c(OC(F)F)c1Cl | 7.34

QUERY: Supply reported pIC50 belonging to this compound: CCc1c(N2CCN(C(=O)c3ncnc(C)c3O)CC2)c(=O)n2nc(-c3ccc4c(c3)[C@@H](C(F)(F)F)OC4)nc2n1CC(=O)Nc1ccc(C(F)(F)F)cc1Cl
RESULT: 7.10

---

target: Bifunctional 3'-5' exonuclease/ATP-dependent helicase WRN (Homo sapiens); assay: ADP-Glo Kinase Assay
OUTCOME_MEASURE: pIC50
Recall that pIC50 is obtained by taking minus log10 of the concentration measured in molar.

QUERY: Supply reported pIC50 belonging to this molecule: CCc1c(N2CCN(C(=O)c3ncnc(C)c3O)CC2)c(=O)n2nc(-c3ccc4c(c3)CN(C)C4(C)C)nc2n1CC(=O)Nc1ccc(C(F)(F)F)cc1Cl
RESULT: 7.51
